Target: Bcl-xL (Homo sapiens, UniProt Q07817)
Sequence (Q07817 1-209 limits assumed): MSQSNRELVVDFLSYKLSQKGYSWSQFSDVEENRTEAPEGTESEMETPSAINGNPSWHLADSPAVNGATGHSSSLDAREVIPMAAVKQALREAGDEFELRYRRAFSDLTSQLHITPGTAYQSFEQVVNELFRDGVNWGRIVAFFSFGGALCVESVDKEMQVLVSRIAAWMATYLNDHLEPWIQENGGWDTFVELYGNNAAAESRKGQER
measured.parameter: IC50 (µM)
Give the number; µM is assumed, so skip it.

Prompt: Quick check: IC50 of CCN1CCN(C(c2ccc(C(F)(F)F)cc2)c2cc(Cl)c3cccnc3c2O)CC1 (stereo not shown) ?
Completion: 40
